The reported measurements were obtained from paper PMC9482650.

- TEST_TARGET: Inadl_9, Q8NI35
- Sequence (Q8NI35 1530-1615): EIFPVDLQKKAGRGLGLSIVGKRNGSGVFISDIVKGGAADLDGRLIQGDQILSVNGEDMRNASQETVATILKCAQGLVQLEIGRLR
- ASSAY_DETAILS: holdup assay
- Design: key: below the threshold = too weak to quantify, mostly under pKd 3.1 to 4
- TEST_PARAMETERS: plain residues with an end cap or a label only (N-terminal biotin on a linker: ado-ado)

- BINDER: "GQNMTVSVVI [PRLHR, P49683]"
  pKd: "below the threshold"
- BINDER: "GTMFLRETSL [GUCY1A2, P33402]"
  pKd: "below the threshold"
- BINDER: "NTALVESEDL [PALLS, Q8WX93;Q8WX93-1]"
  pKd: "below the threshold"
- BINDER: "WAKEKQHTRL [SLC17A1, Q14916]"
  pKd: "below the threshold"
- BINDER: "VYEVPVETKF [SLC26A3, P40879]"
  pKd: "below the threshold"
- BINDER: "DFKHTKSFII [JAM2, P57087]"
  pKd: "below the threshold"
- BINDER: "RDYTQSSSSL [GRM5, P41594]"
  pKd: "below the threshold"
- BINDER: "IGHEDLETAV [DGKI, O75912]"
  pKd: 3.49
- BINDER: "KSRPENGTVC [TMEM178B, H3BS89]"
  pKd: "below the threshold"
- BINDER: "QKASRNESTF [POLR1D, P0DPB6]"
  pKd: "below the threshold"
- BINDER: "AKADAQESRL [PLCB2, Q00722]"
  pKd: "below the threshold"
- BINDER: "PEKVSNTTVV [IGSF5, Q9NSI5]"
  pKd: "below the threshold"
- BINDER: "TFSRRPKTRV [CD226, Q15762]"
  pKd: "below the threshold"
- BINDER: "SAGADSETHC [SLCO1B1, Q9Y6L6]"
  pKd: "below the threshold"
- BINDER: "GDSSRKEYFI [GYPC, P04921]"
  pKd: 3.51
- BINDER: "NISARRFTLC [FAM167B, Q9BTA0]"
  pKd: "below the threshold"
- BINDER: "NSTHNLKDYV [CLDN20, P56880]"
  pKd: 3.66
- BINDER: "QLKSGRDSTV [TMEM178A, Q8NBL3]"
  pKd: 3.52
- BINDER: "PSVYSRSQYV [CLDN8, P56748]"
  pKd: 4.36
- BINDER: "DSEEELPTRL [GRK6, P43250]"
  pKd: 3.69
- BINDER: "THHRKIHTRV [ZNF599, Q96NL3]"
  pKd: 3.58
- BINDER: "DAAHHDESNC [FMNL3, Q8IVF7]"
  pKd: "below the threshold"
- BINDER: "PGKKPEDSRV [SLCO2B1, O94956]"
  pKd: "below the threshold"
- BINDER: "PALKNGQYWV [CSPG4, Q6UVK1]"
  pKd: 4.16
- BINDER: "DLLGGGSDSI [TNRC6B, Q9UPQ9]"
  pKd: "below the threshold"
- BINDER: "VCMGDHWFDV [PRKN, O60260]"
  pKd: 3.69
- BINDER: "IQISELETNV [SLC1A7, O00341]"
  pKd: "below the threshold"
- BINDER: "PDSYHRRDFW [U2AF2, P26368]"
  pKd: "below the threshold"
